# measured-target: hKv3.1 (Homo sapiens)
# Construct: expressed in transfected cells
# protocol-description: Automated patch clamp electrophysiology (Patchliner), CHO/Kv3.1 cells
# Format: cell-based
# measurement-context: 10 μM compound; voltage shift of the IV curve at V1/2; hKv3.1 in CHO-K1, whole-cell
// class assignment uses Kv3.1 Activity at 10 μM Voltage Shift (mV) with these ranges: zone 1 (below -3 mV), zone 2 (-3 mV to below -2 mV), zone 3 (-2 mV or more)

INSERT INTO assay_data (molecule, measured_target, cat) VALUES
  ('COc1ccc(Oc2cc(N3C(=O)NC(C)(C)C3=O)ncn2)cc1F [Example 12]', 'hKv3.1 (Homo sapiens)', 'zone 3'),
  ('COc1cc(Oc2cc(N3C(=O)NC(C)(C)C3=O)ncn2)ccc1F [Example 13]', 'hKv3.1 (Homo sapiens)', 'zone 2'),
  ('CC[C@H]1NC(=O)N(c2nccc(Oc3ccc(C)c(OC)c3)n2)C1=O [Example 56]', 'hKv3.1 (Homo sapiens)', 'zone 1'),
  ('COc1cc(Oc2cncc(N3C(=O)NC(C)(C)C3=O)n2)ccc1F [Example 54]', 'hKv3.1 (Homo sapiens)', 'zone 3'),
  ('CC1(C)NC(=O)N(c2cc(Oc3cccnc3)ncn2)C1=O [Example 23]', 'hKv3.1 (Homo sapiens)', 'zone 3'),
  ('Cc1ccc(Oc2cc(N3C(=O)NC(C)(C)C3=O)ncn2)cc1C [Example 29]', 'hKv3.1 (Homo sapiens)', 'zone 3'),
  ('CC1(C)NC(=O)N(c2cc(Oc3ccc4c(c3)OC(F)(F)O4)ncn2)C1=O [Example 45]', 'hKv3.1 (Homo sapiens)', 'zone 3'),
  ('COc1cccc(Oc2cc(N3C(=O)NC(C)(C)C3=O)ncn2)c1C(C)C [Example 40]', 'hKv3.1 (Homo sapiens)', 'zone 2'),
  ('COc1c(C)cc(Oc2cc(N3C(=O)NC(C)(C)C3=O)ncn2)cc1C [Example 35]', 'hKv3.1 (Homo sapiens)', 'zone 3'),
  ('Cc1ccc(Oc2cc(N3C(=O)NC(C)(C)C3=O)ncn2)cc1 [Example 28]', 'hKv3.1 (Homo sapiens)', 'zone 3'),
  ('Cc1ccc(Oc2cc(N3C(=O)NC(C)(C)C3=O)ncn2)cc1OCC(C)C [Example 39]', 'hKv3.1 (Homo sapiens)', 'zone 2'),
  ('COc1cc(Oc2cc(N3C(=O)NC4(CCCC4)C3=O)ncn2)ccc1F [Example 14]', 'hKv3.1 (Homo sapiens)', 'zone 2'),
  ('COc1cc(Oc2nccc(N3C(=O)NC4(CCCCC4)C3=O)n2)ccc1C [Example 74]', 'hKv3.1 (Homo sapiens)', 'zone 1'),
  ('COc1cc(C)ccc1Oc1cc(N2C(=O)NC(C)(C)C2=O)ncn1 [Example 21]', 'hKv3.1 (Homo sapiens)', 'zone 3'),
  ('Cc1ccccc1Oc1cc(N2C(=O)NC(C)(C)C2=O)ncn1 [Example 26]', 'hKv3.1 (Homo sapiens)', 'zone 2'),
  ('COc1cc(Oc2nccc(N3C(=O)NC(C)(C)C3=O)n2)ccc1C(F)(F)F [Example 65]', 'hKv3.1 (Homo sapiens)', 'zone 2'),
  ('COc1ccc(Oc2cc(N3C(=O)NC(C)(C)C3=O)ncn2)cc1 [Example 11]', 'hKv3.1 (Homo sapiens)', 'zone 3'),
  ('COc1cc(Oc2cc(N3C(=O)N[C@](C)(C(C)C)C3=O)ncn2)ccc1C [Example 8]', 'hKv3.1 (Homo sapiens)', 'zone 1'),
  ('Cc1ccc(Oc2cc(N3C(=O)NC(C)(C)C3=O)ncn2)cc1OCC1CC1 [Example 37]', 'hKv3.1 (Homo sapiens)', 'zone 3'),
  ('CC[C@H]1NC(=O)N(c2nccc(Oc3ccccc3-c3ccccc3)n2)C1=O [Example 58]', 'hKv3.1 (Homo sapiens)', 'zone 1'),
  ('Cc1ccc(Oc2cc(N3C(=O)NC(C)(C)C3=O)ncn2)c2c1OCC21CC1 [Example 47]', 'hKv3.1 (Homo sapiens)', 'zone 2'),
  ('CC1(C)NC(=O)N(c2cc(Oc3cccc4c3CCC4)ncn2)C1=O [Example 32]', 'hKv3.1 (Homo sapiens)', 'zone 3'),
  ('Cc1ccc(Oc2cc(N3C(=O)NC(C)(C)C3=O)ncn2)cc1C#N [Example 22]', 'hKv3.1 (Homo sapiens)', 'zone 2'),
  ('COc1cc(Oc2cnnc(N3C(=O)NC(C)(C)C3=O)c2)ccc1C [Example 77]', 'hKv3.1 (Homo sapiens)', 'zone 2'),
  ('COc1cc(Oc2nccc(N3C(=O)NC(C)(C)C3=O)n2)ccc1F [Example 64]', 'hKv3.1 (Homo sapiens)', 'zone 3'),
  ('COc1ccc(Oc2cc(N3C(=O)NC(C)(C)C3=O)ncn2)cc1C [Example 20]', 'hKv3.1 (Homo sapiens)', 'zone 1'),
  ('COc1ccc(C)c(Oc2cc(N3C(=O)NC(C)(C)C3=O)ncn2)c1 [Example 18]', 'hKv3.1 (Homo sapiens)', 'zone 2'),
  ('CC1(C)NC(=O)N(c2cc(Oc3ccc4c(c3)CCC4)ncn2)C1=O [Example 31]', 'hKv3.1 (Homo sapiens)', 'zone 1');

----------
Listing of entries alongside the reported Kv3.1 Activity at 10 μM Potentiation (%).
# measured-target: hKv3.1 (Homo sapiens, UniProt P48547)
# Construct: expressed in transfected cells
# protocol-description: Automated patch clamp electrophysiology (Patchliner), CHO/Kv3.1 cells
# Type: cell-based
# measurement-context: 10 μM compound; peak current at voltage step of −10 mV vs vehicle (0.33% DMSO); hKv3.1 in CHO-K1, whole-cell
measured-property: Kv3.1 Activity at 10 μM Potentiation (%)

INSERT INTO results (smiles_str, readout_unit, experimental_value) VALUES
  ('COc1cc(Oc2cc(N3C(=O)N[C@](C)(C(C)C)C3=O)ncn2)ccc1C', '%', 48),
  ('CC1(C)NC(=O)N(c2cc(Oc3ccc4c(c3)CCC4)ncn2)C1=O', '%', 65),
  ('Cc1ccc(Oc2cc(N3C(=O)NC(C)(C)C3=O)ncn2)c2c1OCC21CC1', '%', 36),
  ('COc1cc(Oc2ccnc(N3C(=O)NC4(CCCCC4)C3=O)n2)ccc1C', '%', 2),
  ('CC[C@H]1NC(=O)N(c2nccc(Oc3ccccc3-c3ccccc3)n2)C1=O', '%', 61),
  ('COc1c(C)cc(Oc2cc(N3C(=O)NC(C)(C)C3=O)ncn2)cc1C', '%', '−10'),
  ('CCc1cc(Oc2cc(N3C(=O)NC(C)(C)C3=O)ncn2)ccc1C', '%', 63),
  ('COc1c(C)cccc1Oc1cc(N2C(=O)NC(C)(C)C2=O)ncn1', '%', 15),
  ('COc1cc(Oc2cc(N3C(=O)NC(C)(C)C3=O)ncn2)ccc1C(F)(F)F', '%', 11),
  ('CC[C@@]1(C)NC(=O)N(c2nccc(Oc3ccc(C)c(OC)c3)n2)C1=O', '%', 32),
  ('Cc1ccc(Oc2cc(N3C(=O)NC(C)(C)C3=O)ncn2)cc1C#N', '%', 31),
  ('Cc1ccc(Oc2cc(N3C(=O)NC(C)(C)C3=O)ncn2)cc1C', '%', 10),
  ('COc1cc(Oc2cc(N3C(=O)NC(C)(C)C3=O)ncn2)ccc1C', '%', 45),
  ('COc1ccccc1Oc1cc(N2C(=O)NC(C)(C)C2=O)ncn1', '%', 22),
  ('COc1cc(C)cc(Oc2cc(N3C(=O)NC(C)(C)C3=O)ncn2)c1', '%', 7),
  ('CC1(C)NC(=O)N(c2cc(Oc3cccc4c3CCC4)ncn2)C1=O', '%', 13),
  ('COc1ccc(Oc2cc(N3C(=O)NC(C)(C)C3=O)ncn2)cc1F', '%', 13),
  ('CC1(C)NC(=O)N(c2cc(Oc3ccc4c(c3)OC(F)(F)O4)ncn2)C1=O', '%', 19);

----------
# measured-target: hKv3.1 (Homo sapiens)
# Construct: expressed in transfected cells
# Sequence (P48547 1-511): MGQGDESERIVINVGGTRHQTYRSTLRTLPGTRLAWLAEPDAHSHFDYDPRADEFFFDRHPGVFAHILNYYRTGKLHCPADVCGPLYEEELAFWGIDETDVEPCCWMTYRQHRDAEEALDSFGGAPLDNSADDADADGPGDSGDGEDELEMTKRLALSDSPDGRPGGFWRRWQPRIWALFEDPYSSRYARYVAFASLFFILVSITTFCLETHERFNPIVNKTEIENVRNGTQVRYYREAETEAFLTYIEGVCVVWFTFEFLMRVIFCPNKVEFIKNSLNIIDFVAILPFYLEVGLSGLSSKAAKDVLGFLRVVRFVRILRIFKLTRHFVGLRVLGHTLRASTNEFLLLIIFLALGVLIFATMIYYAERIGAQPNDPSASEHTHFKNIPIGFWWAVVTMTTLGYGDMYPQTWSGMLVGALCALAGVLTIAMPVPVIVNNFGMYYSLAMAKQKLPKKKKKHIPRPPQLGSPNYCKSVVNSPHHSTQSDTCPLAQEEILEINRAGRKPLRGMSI
# protocol-description: Automated patch clamp electrophysiology (Patchliner), CHO/Kv3.1 cells
# Assay type: cell-based
# measurement-context: 10 μM compound; peak current at voltage step of −10 mV vs vehicle (0.33% DMSO); hKv3.1 in CHO-K1, whole-cell
Entries and their Kv3.1 Activity at 10 μM Potentiation (%) values follow.
measured-property: Kv3.1 Activity at 10 μM Potentiation (%)

INSERT INTO results (smiles_str, measured_target, measured_property, experimental_value) VALUES
  ('COc1cccc(Oc2cc(N3C(=O)NC(C)(C)C3=O)ncn2)c1C(C)C', 'hKv3.1 (Homo sapiens)', 'Kv3.1 Activity at 10 μM Potentiation (%)', 23),
  ('CC[C@H]1NC(=O)N(c2cc(Oc3ccc(C)c(OC)c3)ncn2)C1=O', 'hKv3.1 (Homo sapiens)', 'Kv3.1 Activity at 10 μM Potentiation (%)', 16),
  ('COc1ccc(Oc2cc(N3C(=O)NC(C)(C)C3=O)ncn2)cc1', 'hKv3.1 (Homo sapiens)', 'Kv3.1 Activity at 10 μM Potentiation (%)', 8),
  ('COc1cc(Oc2cncc(N3C(=O)NC(C)(C)C3=O)n2)ccc1C', 'hKv3.1 (Homo sapiens)', 'Kv3.1 Activity at 10 μM Potentiation (%)', 52),
  ('CC[C@]1(C)NC(=O)N(c2cc(Oc3ccc(C)c(OC)c3)ncn2)C1=O', 'hKv3.1 (Homo sapiens)', 'Kv3.1 Activity at 10 μM Potentiation (%)', 34),
  ('CC1(C)NC(=O)N(c2cc(Oc3cccnc3)ncn2)C1=O', 'hKv3.1 (Homo sapiens)', 'Kv3.1 Activity at 10 μM Potentiation (%)', 28),
  ('Cc1cccc(Oc2cc(N3C(=O)NC(C)(C)C3=O)ncn2)c1', 'hKv3.1 (Homo sapiens)', 'Kv3.1 Activity at 10 μM Potentiation (%)', '−17'),
  ('COc1cncc(Oc2cc(N3C(=O)NC(C)(C)C3=O)ncn2)c1', 'hKv3.1 (Homo sapiens)', 'Kv3.1 Activity at 10 μM Potentiation (%)', 6),
  ('CCC1(CC)NC(=O)N(c2cc(Oc3ccc(C)c(OC)c3)ncn2)C1=O', 'hKv3.1 (Homo sapiens)', 'Kv3.1 Activity at 10 μM Potentiation (%)', 25),
  ('CCOc1cc(Oc2cc(N3C(=O)NC(C)(C)C3=O)ncn2)ccc1C', 'hKv3.1 (Homo sapiens)', 'Kv3.1 Activity at 10 μM Potentiation (%)', 17),
  ('Cc1ccc(Oc2cc(N3C(=O)NC(C)(C)C3=O)ncn2)cn1', 'hKv3.1 (Homo sapiens)', 'Kv3.1 Activity at 10 μM Potentiation (%)', 33),
  ('CC1(C)NC(=O)N(c2cc(Oc3ccc4c(c3)OCCC4)ncn2)C1=O', 'hKv3.1 (Homo sapiens)', 'Kv3.1 Activity at 10 μM Potentiation (%)', 33),
  ('Cc1ccc(Oc2cc(N3C(=O)NC(C)(C)C3=O)ncn2)cc1', 'hKv3.1 (Homo sapiens)', 'Kv3.1 Activity at 10 μM Potentiation (%)', 3),
  ('COc1cc(Oc2cc(N3C(=O)NC4(CCCCC4)C3=O)ncn2)ccc1F', 'hKv3.1 (Homo sapiens)', 'Kv3.1 Activity at 10 μM Potentiation (%)', 17),
  ('Cc1ccc(Oc2cc(N3C(=O)NC(C)(C)C3=O)ncn2)cc1OCC(C)C', 'hKv3.1 (Homo sapiens)', 'Kv3.1 Activity at 10 μM Potentiation (%)', 13),
  ('COc1cc(Oc2nccc(N3C(=O)NC(C)(C)C3=O)n2)ccc1F', 'hKv3.1 (Homo sapiens)', 'Kv3.1 Activity at 10 μM Potentiation (%)', 34),
  ('COc1cc(C)ccc1Oc1cc(N2C(=O)NC(C)(C)C2=O)ncn1', 'hKv3.1 (Homo sapiens)', 'Kv3.1 Activity at 10 μM Potentiation (%)', 29),
  ('CC(C)c1cc(Oc2ccnc(N3C(=O)NC(C)(C)C3=O)n2)ccc1C#N', 'hKv3.1 (Homo sapiens)', 'Kv3.1 Activity at 10 μM Potentiation (%)', 21),
  ('CC[C@@]1(C)NC(=O)N(c2cc(Oc3ccc(C)c(OC)c3)ncn2)C1=O', 'hKv3.1 (Homo sapiens)', 'Kv3.1 Activity at 10 μM Potentiation (%)', 16);
